Where do the numbers come from? From a melting point compilation (Tetko et al.).

measuredEndpoint: melting point (°C)

Known melting point results, listed for orientation:
1. Cc1cccc2c1C(=O)OC2O (stereo unspecified) = 117
2. O=C(O)CCc1ccco1 = 58

1. CCCCOc1ccc(OCCCC)cc1
2. Cc1c(NC(C)C)c(=O)n(-c2ccccc2)n1C
3. NNc1cc(Cl)cc(Cl)c1
4. O=C(O)c1ccc[nH]c1=S
Ordering: ascending melting point. Give the labels in the order specified.
1, 2, 3, 4

* * *

measuredEndpoint: melting point (°C)

1. FC(Cl)CCl (stereo not given) = -60
2. C=Cc1scnc1C = -15
3. CCCCOCC = -124
4. S=C(Nc1ccccc1)c1ccccc1 = 102

P. CC12CCC(C(O)=C/C1=N\Nc1ccccc1)C2(C)C (stereo not given)
Q. CN(c1c(F)c(F)c(C#N)c(F)c1F)N(O)O
I need your help: which of the pair P , Q has higher melting point? Kindly state the label of the option you pick.
P

1. CC(=O)OC1(C(C)=O)CCC2C3CC(C)C4=CC(=O)CCC4(C)C3CCC21C (stereo not given)
2. O=C(O)C(F)(F)C(F)(F)C(F)(F)C(F)(F)C(=O)O
3. C#CC=CC=C
4. BrC(Br)C(Br)Br
// sort entries: melting point, high to low Give the labels in the order specified.
1, 2, 4, 3

1. CC12CCCC1C1CCC(CCC(=O)O)C(C)(CCC(=O)O)C1CC2 (stereo not given)
2. CC(C)(C)OC(=O)N[C@H](CO)Cc1ccccc1
I need your help: which of the pair 1 , 2 has higher melting point? Kindly state the label of the option you pick.
1

1. O=C(O)C(=O)Cc1c[nH]c2ccccc12
2. CCOc1cc(C)ccc1O
3. N#CCc1ccc(-c2ccccc2)cc1
4. CC(=O)CC(=O)CC(C)=O
Ordering: ascending melting point. Give the labels in the order specified.
2, 4, 3, 1
